FYI, the data here is from paper PMC10150366.

molecular target: BCL6-SMRT (NCOR2) corepressor protein-protein interaction (Homo sapiens); construct: DNA encoding full length BCL6 and SMRT; expressed in transfected cells; host or cells: HEK293T; test: NanoBRET cellular assay (HEK293T); format: cell-based; settings: Table S2
Exercise: state measured BCL6 NanoBRET pIC50 mean for each of the molecules provided.
Answers are plain numbers.

Previously resolved entries follow.
Cn1c(=O)c2c(c3cc(Nc4nc(N5CC6CCC(C5)O6)ncc4Cl)ccc31)N[C@@H](C1CC1)C(F)(F)CO2 [compound 5] | 7.9026
Cn1c(=O)c2c(c3cc(Nc4nc(N5CC(F)(F)C5)ncc4Cl)ccc31)N[C@@H](C1CC1)C(F)(F)CO2 [compound 11] | 7.5086

// each molecule listed below needs its BCL6 NanoBRET pIC50 mean
1. Cn1c(=O)c2c(c3cc(Nc4ccnc(F)c4Cl)ccc31)N[C@@H](C1CC1)C(F)(F)CO2 [compound 17]
2. Cn1c(=O)c2c(c3cc(Nc4ccnc(Cl)c4F)ccc31)N[C@@H](C1CC1)C(F)(F)CO2 [compound 18]

1. 7.6643
2. 6.9685

---

molecular target: ADRA1A (Homo sapiens); assay: SAFETYscan Calcium Flux ADRA1A Antagonist
Sequence (P35348 whole entry): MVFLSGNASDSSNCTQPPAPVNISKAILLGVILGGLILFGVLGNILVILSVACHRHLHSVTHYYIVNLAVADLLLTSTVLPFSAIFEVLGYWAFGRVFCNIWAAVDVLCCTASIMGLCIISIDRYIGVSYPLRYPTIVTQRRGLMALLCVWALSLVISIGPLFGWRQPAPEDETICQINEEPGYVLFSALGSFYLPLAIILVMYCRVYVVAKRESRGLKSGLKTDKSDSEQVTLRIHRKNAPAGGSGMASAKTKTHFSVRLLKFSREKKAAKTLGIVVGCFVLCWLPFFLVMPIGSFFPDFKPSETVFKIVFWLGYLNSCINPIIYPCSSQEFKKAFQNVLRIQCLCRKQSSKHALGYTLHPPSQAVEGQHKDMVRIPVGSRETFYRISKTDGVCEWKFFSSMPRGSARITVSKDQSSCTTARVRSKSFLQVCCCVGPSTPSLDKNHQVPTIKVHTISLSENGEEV
pIC50: −log10 of the molar value.
READOUT LABEL: pIC50

Find the recorded pIC50 belonging to Cn1c(=O)c2c(c3cc(Nc4ccnc(F)c4Cl)ccc31)N[C@@H](C1CC1)C(F)(F)CO2 and report it. < 5.00

---

Biological target: GR (Homo sapiens)
Sequence (P04150 1-777): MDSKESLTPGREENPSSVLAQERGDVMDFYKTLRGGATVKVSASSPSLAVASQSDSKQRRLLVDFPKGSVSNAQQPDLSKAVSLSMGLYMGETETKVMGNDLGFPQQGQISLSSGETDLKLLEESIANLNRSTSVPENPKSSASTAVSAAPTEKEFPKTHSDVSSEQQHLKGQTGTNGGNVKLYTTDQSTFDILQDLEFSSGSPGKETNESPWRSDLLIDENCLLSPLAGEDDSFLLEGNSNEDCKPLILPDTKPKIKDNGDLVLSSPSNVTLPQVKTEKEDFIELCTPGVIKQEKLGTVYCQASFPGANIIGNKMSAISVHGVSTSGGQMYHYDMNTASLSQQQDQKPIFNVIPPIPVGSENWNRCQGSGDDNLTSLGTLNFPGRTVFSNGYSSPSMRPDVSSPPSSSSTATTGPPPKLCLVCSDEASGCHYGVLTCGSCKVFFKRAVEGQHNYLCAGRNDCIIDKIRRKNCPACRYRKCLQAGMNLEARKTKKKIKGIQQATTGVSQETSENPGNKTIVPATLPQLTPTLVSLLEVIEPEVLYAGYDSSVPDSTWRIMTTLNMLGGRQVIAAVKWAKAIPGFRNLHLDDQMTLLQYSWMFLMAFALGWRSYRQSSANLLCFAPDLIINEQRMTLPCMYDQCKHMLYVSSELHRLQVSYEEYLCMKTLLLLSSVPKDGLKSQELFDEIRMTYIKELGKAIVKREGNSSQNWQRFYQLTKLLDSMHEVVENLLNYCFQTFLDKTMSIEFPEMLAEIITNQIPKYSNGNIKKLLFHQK
Assay: SAFETYscan NHR Protein Interaction GR Agonist
Conditions: read-out: RC50 (EC50)
READOUT LABEL: EC50

Please look up its EC50: Cn1c(=O)c2c(c3cc(Nc4ccnc(F)c4Cl)ccc31)N[C@@H](C1CC1)C(F)(F)CO2 > 10 µM
